molecular target: Sulfide:quinone oxidoreductase, mitochondrial (Homo sapiens); experiment: Inhibition of SQOR (unknown origin) using sodium sulfide, sodium sulfite and coenzyme Q1 by UV absorbance method
Sequence (Q9Y6N5 whole entry): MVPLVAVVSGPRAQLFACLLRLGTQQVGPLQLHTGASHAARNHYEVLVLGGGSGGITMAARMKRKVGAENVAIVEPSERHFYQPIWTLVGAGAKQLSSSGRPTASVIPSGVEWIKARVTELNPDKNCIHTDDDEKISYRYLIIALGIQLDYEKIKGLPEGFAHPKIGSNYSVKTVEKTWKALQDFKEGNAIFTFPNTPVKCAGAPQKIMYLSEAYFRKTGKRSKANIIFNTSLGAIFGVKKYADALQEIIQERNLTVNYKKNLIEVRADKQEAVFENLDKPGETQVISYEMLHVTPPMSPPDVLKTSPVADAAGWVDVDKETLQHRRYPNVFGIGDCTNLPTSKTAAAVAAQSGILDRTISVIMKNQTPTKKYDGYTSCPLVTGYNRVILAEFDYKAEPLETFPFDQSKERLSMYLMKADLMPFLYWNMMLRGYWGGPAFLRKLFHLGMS
observation_type: IC50

{"sequence_content": "AUROTHIOGLUCOSE", "target_or_test_system": "Sulfide:quinone oxidoreductase, mitochondrial (Homo sapiens)", "readout_value": "0.925 to 0.93 µM"}

---

target: Sulfide:quinone oxidoreductase, mitochondrial (Homo sapiens); assay: Inhibition of SQOR (unknown origin) at 10 uM using sodium sulfide, sodium sulfite and coenzyme Q1 by UV absorbance method relative to control
Sequence (Q9Y6N5 whole entry, looked up): as the sequence (Q9Y6N5 whole entry) above

{"molecular_string": "CCCCCCCC(=O)n1c(Cl)cc(=O)[nH]c1=O", "inhibition": "10 to 50%"}
{"molecular_string": "CCCCCn1cc(F)c(=O)n(CCCCC)c1=O", "inhibition": "> 50%"}
{"molecular_string": "CCCCCn1c(Cl)cc(=O)n(CCCCC)c1=O", "inhibition": "10 to 50%"}
{"molecular_string": "CCCCCCCCCCCCCC(=O)n1nc(Br)c(=O)[nH]c1=O", "inhibition": "> 50%"}
{"molecular_string": "CCCCCCCn1cc(F)c(=O)n(CCCCCCC)c1=O", "inhibition": "> 50%"}
{"molecular_string": "CCCCCC(=O)n1nc(Br)c(=O)[nH]c1=O", "inhibition": "10 to 50%"}
{"molecular_string": "CCCCCCCC(=O)n1c(C)c(Br)c(=O)[nH]c1=O", "inhibition": "10 to 50%"}
{"molecular_string": "O=C(C1CCCCC1)n1nc(Br)c(=O)[nH]c1=O", "inhibition": "> 50%"}
{"molecular_string": "CCCCCCCC(=O)n1c(I)cc(=O)[nH]c1=O", "inhibition": "10 to 50%"}
{"molecular_string": "CCCCCCCCn1c(C)c(F)c(=O)n(CCCCCCCC)c1=O", "inhibition": "10 to 50%"}

---

inhibition: recorded values
target: Sulfide:quinone oxidoreductase, mitochondrial (Homo sapiens); assay: Inhibition of SQOR (unknown origin) at 10 uM using sodium sulfide, sodium sulfite and coenzyme Q1 by UV absorbance method relative to control

{"molecular_string": "CCCCCCCC(=O)n1cc(Br)c(=O)[nH]c1=O", "inhibition": "10 to 50%"}
{"molecular_string": "CCCCCCC(=O)n1cc(F)c(=O)n(C)c1=O", "inhibition": "10 to 50%"}
{"molecular_string": "CCCCCCn1cc(F)c(=O)n(CCCCCC)c1=O", "inhibition": "> 50%"}
{"molecular_string": "CCCCCCCC(=O)n1cc(F)c(=O)[nH]c1=O", "inhibition": "3%"}
{"molecular_string": "CCCCCn1c(C)c(F)c(=O)n(CCCCC)c1=O", "inhibition": "> 50%"}
{"molecular_string": "CCCCCCCCCC(=O)n1nc(Br)c(=O)[nH]c1=O", "inhibition": "> 50%"}
{"molecular_string": "O=c1c(F)cn(CCc2ccccc2)c(=O)n1CCc1ccccc1", "inhibition": "10 to 50%"}
{"molecular_string": "CCCCCCCCNC(=O)n1cc(Cl)c(=O)[nH]c1=O", "inhibition": "> 50%"}
{"molecular_string": "O=C(CCC1CCCC1)n1nc(Br)c(=O)[nH]c1=O", "inhibition": "> 50%"}
{"molecular_string": "CCCNC(=O)n1cc(F)c(=O)[nH]c1=O", "inhibition": "6%"}
{"molecular_string": "CCCCCCCCCCCC(=O)n1nc(Br)c(=O)[nH]c1=O", "inhibition": "> 50%"}
{"molecular_string": "CC(C)C(=O)n1nc(Br)c(=O)[nH]c1=O", "inhibition": "10 to 50%"}

---

target: Sulfide:quinone oxidoreductase, mitochondrial (Homo sapiens); test: Inhibition of SQOR (unknown origin) at 10 uM using sodium sulfide, sodium sulfite and coenzyme Q1 by UV absorbance method relative to control
observation_type: inhibition

{"molecular_string": "O=C(CC1CCCCC1)n1nc(Br)c(=O)[nH]c1=O", "observation_type": "inhibition", "readout_value": "> 50%"}
{"molecular_string": "CCCCCCCC(=O)n1nc(Br)c(=O)[nH]c1=O", "observation_type": "inhibition", "readout_value": "> 50%"}
{"molecular_string": "CCCCCCCC(=O)n1cc(Cl)c(=O)[nH]c1=O", "observation_type": "inhibition", "readout_value": "10 to 50%"}
{"molecular_string": "CC(C)CCCn1cc(F)c(=O)n(CCCC(C)C)c1=O", "observation_type": "inhibition", "readout_value": "10 to 50%"}
{"molecular_string": "O=C(c1ccccc1)n1nc(Br)c(=O)[nH]c1=O", "observation_type": "inhibition", "readout_value": "10 to 50%"}
{"molecular_string": "O=C(NCc1ccccc1)n1cc(F)c(=O)[nH]c1=O", "observation_type": "inhibition", "readout_value": "10 to 50%"}
{"molecular_string": "CCCCCCCCNC(=O)n1cc(F)c(=O)[nH]c1=O", "observation_type": "inhibition", "readout_value": "10 to 50%"}
{"molecular_string": "CCCCCCCC(=O)n1nc(C)c(=O)[nH]c1=O", "observation_type": "inhibition", "readout_value": "10 to 50%"}
{"molecular_string": "O=C(NCCc1ccccc1)n1cc(F)c(=O)[nH]c1=O", "observation_type": "inhibition", "readout_value": "7%"}
{"molecular_string": "CCCCCCNC(=O)n1cc(F)c(=O)[nH]c1=O", "observation_type": "inhibition", "readout_value": "10 to 50%"}
{"molecular_string": "CCCCCCCCn1cc(F)c(=O)n(CCCCCCCC)c1=O", "observation_type": "inhibition", "readout_value": "10 to 50%"}
{"molecular_string": "O=c1c(F)cn(CCC2CCCCC2)c(=O)n1CCC1CCCCC1", "observation_type": "inhibition", "readout_value": "10 to 50%"}

---

target: UniProt:Q9Y6N5
IC50: recorded values

{"compound": "CCCCCn1cc(F)c(=O)n(CCCCC)c1=O", "target_or_test_system": "UniProt:Q9Y6N5", "IC50": "< 20 µM"}
{"compound": "O=C(C1CCCCC1)n1nc(Br)c(=O)[nH]c1=O", "target_or_test_system": "UniProt:Q9Y6N5", "IC50": "< 20 µM"}
{"compound": "CCCCCCCC(=O)n1nc(C)c(=O)[nH]c1=O", "target_or_test_system": "UniProt:Q9Y6N5", "IC50": "20 to 100 µM"}
{"compound": "CCCCCCNC(=O)n1cc(F)c(=O)[nH]c1=O [CARMOFUR]", "target_or_test_system": "UniProt:Q9Y6N5", "IC50": "20 to 100 µM"}
{"compound": "CCCCCCCC(=O)n1c(I)cc(=O)[nH]c1=O", "target_or_test_system": "UniProt:Q9Y6N5", "IC50": "< 20 µM"}
{"compound": "CCCCCCCCCC(=O)n1nc(Br)c(=O)[nH]c1=O", "target_or_test_system": "UniProt:Q9Y6N5", "IC50": "100 to 500 µM"}
{"compound": "CCCCCCn1cc(F)c(=O)n(CCCCCC)c1=O", "target_or_test_system": "UniProt:Q9Y6N5", "IC50": "< 20 µM"}
